src = ChEMBL document CHEMBL1135259

measurementTarget: NS3 (Hepatitis C virus, UniProt A3EZJ3)
Sequence (A3EZJ3 whole entry): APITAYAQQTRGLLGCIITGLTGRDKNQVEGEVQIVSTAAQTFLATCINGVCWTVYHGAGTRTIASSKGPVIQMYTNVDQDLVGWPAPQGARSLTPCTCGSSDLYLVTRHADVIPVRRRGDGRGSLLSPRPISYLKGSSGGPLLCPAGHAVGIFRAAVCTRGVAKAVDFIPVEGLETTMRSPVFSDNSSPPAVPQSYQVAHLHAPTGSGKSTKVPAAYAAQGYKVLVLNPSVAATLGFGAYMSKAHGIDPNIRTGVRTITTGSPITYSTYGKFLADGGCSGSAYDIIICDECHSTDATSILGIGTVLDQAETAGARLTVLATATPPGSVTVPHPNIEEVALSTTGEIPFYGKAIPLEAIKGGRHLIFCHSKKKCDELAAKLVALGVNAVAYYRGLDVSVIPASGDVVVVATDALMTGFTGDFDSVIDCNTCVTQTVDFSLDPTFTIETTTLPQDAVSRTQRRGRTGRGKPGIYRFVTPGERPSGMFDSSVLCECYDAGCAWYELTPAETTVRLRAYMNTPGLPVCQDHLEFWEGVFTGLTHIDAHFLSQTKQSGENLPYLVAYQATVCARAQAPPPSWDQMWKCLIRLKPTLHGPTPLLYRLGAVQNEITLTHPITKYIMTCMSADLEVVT
measurementProtocol: Binding affinity against Hepatitis C virus NS3 protease
Parameters: species or system Hepacivirus hominis
parameter: Ki

Before answering, review these 6 worked examples.
- compound: "CCCN(NC(=O)[C@H]1CCCN1C(=O)[C@@H](NC(=O)[C@@H](NC(=O)[C@H](CC(=O)O)NC(=O)[C@H](CCC(=O)O)NC(=O)[C@@H](NC(=O)[C@H](CC(=O)O)NC(C)=O)[C@@H](C)O)C(C)C)C(C)C)C(=O)C(=O)OCC"
  Ki: "> 100 µM"
- compound: "CCCN(NC(=O)[C@H]1CCCN1C(=O)[C@@H](NC(=O)[C@@H](NC(=O)[C@H](CC(=O)O)NC(=O)[C@H](CCC(=O)O)NC(=O)[C@@H](NC(=O)[C@H](CC(=O)O)NC(C)=O)[C@@H](C)O)C(C)C)C(C)C)C(=O)c1ccc([N+](=O)[O-])cc1"
  Ki: "> 100 µM"
- compound: "CCCN(NC(=O)[C@H]1CCCN1C(=O)[C@@H](NC(=O)[C@@H](NC(=O)[C@H](CC(=O)O)NC(=O)[C@H](CCC(=O)O)NC(=O)[C@@H](NC(=O)[C@H](CC(=O)O)NC(C)=O)[C@@H](C)O)C(C)C)C(C)C)S(=O)(=O)CCl"
  Ki: "> 100 µM"
- compound: "CCCN(NC(=O)[C@H]1CCCN1C(=O)[C@@H](NC(=O)[C@@H](NC(=O)[C@H](CC(=O)O)NC(=O)[C@H](CCC(=O)O)NC(=O)[C@@H](NC(=O)[C@H](CC(=O)O)NC(C)=O)[C@@H](C)O)C(C)C)C(C)C)C(=O)Sc1ccccc1"
  Ki: "160 µM"
- compound: "CCCN(NC(=O)[C@H]1CCCN1C(=O)[C@@H](NC(=O)[C@@H](NC(=O)[C@H](CC(=O)O)NC(=O)[C@H](CCC(=O)O)NC(=O)[C@@H](NC(=O)[C@H](CC(=O)O)NC(C)=O)[C@@H](C)O)C(C)C)C(C)C)C(=O)C(F)(F)F"
  Ki: "> 100 µM"
- compound: "CCCC(=O)N(CCC)NC(=O)[C@H]1CCCN1C(=O)[C@@H](NC(=O)[C@@H](NC(=O)[C@H](CC(=O)O)NC(=O)[C@H](CCC(=O)O)NC(=O)[C@@H](NC(=O)[C@H](CC(=O)O)NC(C)=O)[C@@H](C)O)C(C)C)C(C)C"
  Ki: "> 100 µM"

Parameters: items (list). Returns: Ki for each item.
1. CCCN(NC(=O)[C@H]1CCCN1C(=O)[C@@H](NC(=O)[C@@H](NC(=O)[C@H](CC(=O)O)NC(=O)[C@H](CCC(=O)O)NC(C)=O)C(C)C)C(C)C)C(=O)N[C@@H](CO)C(=O)N[C@@H](CCSC)C(=O)N[C@@H](CO)C(=O)N[C@@H](Cc1ccc(O)cc1)C(=O)N[C@H](C(=O)N[C@@H](Cc1c[nH]c2ccccc12)C(=O)N[C@H](C(=O)NCC(=O)N[C@@H](CCCCN)C(=O)O)[C@@H](C)O)[C@@H](C)O
2. CSCC[C@H](NC(=O)[C@H](CO)NC(=O)NNC(=O)[C@H]1CCCN1C(=O)[C@@H](NC(=O)[C@@H](NC(=O)[C@H](CC(=O)O)NC(=O)[C@H](CCC(=O)O)NC(=O)[C@@H](NC(=O)[C@H](CC(=O)O)NC(C)=O)[C@@H](C)O)C(C)C)C(C)C)C(=O)N[C@@H](CO)C(=O)N[C@@H](Cc1ccc(O)cc1)C(=O)N[C@H](C(=O)N[C@@H](Cc1c[nH]c2ccccc12)C(=O)N[C@H](C(=O)NCC(=O)N[C@@H](CCCCN)C(=O)O)[C@@H](C)O)[C@@H](C)O

**Result**
20 µM
> 200 µM
